Test system: L-929 cells
Assay: MTT cell viability assay in noncancerous L-929 fibroblasts
Format: cell-based
Details: Mus musculus, L929, 48 h incubation
assay.endpoint: IC50 (µM)
Write down the numeric answer in µM and omit the unit.

- cpd.smiles: "CCn1cc(C(=O)O)c(=O)c2c3c(ccc21)NC(=O)/C3=C1/C(=O)Nc2ccc(Cl)cc21"
  IC50 (µM): 40.4

Indicate the recorded IC50 value for this compound: `CCn1cc(C(=O)O)c(=O)c2c3c(ccc21)NC(=O)/C3=C1/C(=O)Nc2ccc(Br)cc21`
71.9
